Data credit: patent US20240400635A1

assay-target: human GLP-1 receptor (human, UniProt P43220 24-463)
assay-overview: cell-based or functional assay
In plain terms, low GLP-1 receptor potency [EC50] pM 0% HSA, meaning strictly below 30 pM, gives class 1, and everything else gives class 0.

Completed entries (count: 3):
{"columns": ["binder", "class-label"],
 "data": [
  ["{S27-[(28S)-(28,46-Dicarboxy-2,7,16,25,30-pentaoxo-9,12,18,21-tetraoxa-3,6,15,24,29-pentaazahexatetracontan-1-yl)]-[Gly8,36,Glu22,Cys27]-GLP-1(human)-(7-37)-pep … (ligand, Cys27 of the GLP-1 part (GLP-1(7-37) numbering; residue 21 of the chain) S-alkylated with (28S)-(28,46-Dicarboxy-2,7,16,25,30-pentaoxo-9,12,18,21-tetraoxa-3,6,15,24,29-pentaazahexatetracontan-1-yl) (substituent Chem. 7)) HGEGTFTSDVSSYLEEQAAKCFIAWLVKGGGGAQPGAQPGAQPGAQPGAQPGAQPGAQPGAQPGAQPGAQPGAQPGAQPGAQPGAQPGAQPGAQPGAQPGAQPGAQPGAQPGAQPGAQPGAQPGAQPGAQPGAQPGAQPGAQPGAQPGAQPGAQPGAQPAHPIPDSSPLLQFGGQVRQRYLYTDDAQQTEAHLEIREDGTVGGAADQSPESLLQLKALKPGVIQILGVKTSRFLCQRPDGALYGSLHFDPEACSFRELLLEDGYNVYQSEAHGLPLHLPGQKSPHRDPAPRGPARFLPLPGLPPALPEPPGILAPQPPDVGSSDPLSLVGGSQGRSPSYES", "class 1"],
  ["[8G, 22E, 26R, 36G]GLP-1(7-37)-(GAQP)x2, … (ligand, Cys of the spacer (residue 40 of the chain) S-alkylated with substituent Chem. 7) HGEGTFTSDVSSYLEEQAAREFIAWLVKGGGGAQPGAQPCGAQPAHPIPDSSPLLQFGGQVRQRYLYTDDAQQTEAHLEIREDGTVGGAADQSPESLLQLKALKPGVIQILGVKTSRFLCQRPDGALYGSLHFDPEACSFRELLLEDGYNVYQSEAHGLPLHLPGQKSPHRDPAPRGPARFLPLPGLPPALPEPPGILAPQPPDVGSSDPLSLVGGSQGRSPSYAS", "class 1"],
  ["S{Beta-26}-[2-[2-[[2-[2-[2-[[2-[2-[2-[[(4S)-4-carboxy-4-(17-carboxyheptadecanoyl-amino)butanoyl]amino]ethoxy]ethoxy]acetyl]amino]ethoxy]ethoxy]acetyl]amino]-eth … (ligand, Cys26 of the GLP-1 part (GLP-1(7-37) numbering; residue 20 of the chain) S-alkylated with substituent Chem. 7) HGEGTFTSDVSSYLEEQAACEFIAWLVKGGGGAQPGAQPGAQPGAQPAHPIPDSSPLLQFGGQVRQRYLYTDDAQQTEAHLEIREDGTVGGAADQSPESLLQLKALKPGVIQILGVKTSRFLCQRPDGALYGSLHFDPEACSFRELLLEDGYNVYQSEAHGLPLHLPGQKSPHRDPAPRGPARFLPLPGLPPALPEPPGILAPQPPDVGSSDPLSLVGGSQGRSPSYAS", "class 0"]
]}

### Prompt Regarding S{Beta-27}-[2-[2-[[2-[2-[2-[[2-[2-[2-[[(4S)-4-carboxy-4-(17-carboxyheptadecanoyl-amino)butanoyl]amino]ethoxy]ethoxy]acetyl]amino]ethoxy]ethoxy]acetyl]amino]-eth … (ligand, Cys27 of the GLP-1 part (GLP-1(7-37) numbering; residue 21 of the chain) and Cys180 of the FGF21 part (FGF21(1-181) numbering; residue 228 of the chain) each S-alkylated with substituent Chem. 7) HGEGTFTSDVSSYLEEQAAKCFIAWLVKGGGGAQPGAQPGAQPGAQPAHPIPDSSPLLQFGGQVRQRYLYTDDAQQTEAHLEIREDGTVGGAADQSPESLLQLKALKPGVIQILGVKTSRFLCQRPDGALYGSLHFDPEACSFRELLLEDGYNVYQSEAHGLPLHLPGQKSPHRDPAPRGPARFLPLPGLPPALPEPPGILAPQPPDVGSSDPLSLVGPSQGRSPSYCS , kindly confirm whether its GLP-1 receptor potency [EC50] pM 0% HSA is beneath 30 pM.
### Response class 1

### Prompt Moving on to the next binder: S{Beta-27}-[2-[2-[[2-[2-[2-[[2-[2-[2-[[(4S)-4-carboxy-4-(17-carboxyheptadecanoyl-amino)butanoyl]amino]ethoxy]ethoxy]acetyl]amino]ethoxy]ethoxy]acetyl]amino]-eth … (ligand, Cys27 of the GLP-1 part (GLP-1(7-37) numbering; residue 21 of the chain) S-alkylated with substituent Chem. 7) HGEGTFTSDVSSYLEEQAAKCFIAWLVKGGGGAQPGAQPGAQPGAQPAHPIPDSSPLLQFGGQVRQRYLYTDDAQQTEAHLEIREDGTVGGAADQSPESLLQLKALKPGVIQILGVKTSRFLCQRPDGALYGSLHFDPEACSFRELLLEDGYNVYQSEAHGLPLHLPGQKSPHRDPAPRGPARFLPLPGLPPALPEPPGILAPQPPDVGSSDPLSLVGGSQGRSPSYES
### Response class 1
